The origin of these recorded values is PubChem BioAssay (NCI).

- Tested on: HCT-15 colon
- Method Summary: NCI tumour cell line growth inhibition, 48 h
Where a SMILES comes first, the peptide text is derived from it. Residues, ends and D or L forms follow the SMILES beside them. *: point of attachment. Boc = CC(C)(C)OC(=O)*; OBn = c1ccc(CO*)cc1
The molecules listed here are annotated with their TGI.

{"Molecule": "N#Cc1c(Cl)nc2ccccc2c1N=[N+]=[N-]", "TGI": "4.3 µM"}
{"Molecule": "OCCNCCCOc1ccc2ncnc(Nc3ccc(Oc4cccc(C(F)(F)F)c4)c(Cl)c3)c2c1", "TGI": "3.01 µM"}
{"Molecule": "CCC(=O)Nc1ccccc1C#C/C=C\\C#Cc1ccccc1C(F)(F)F", "TGI": "> 50 µM"}
{"Molecule": "Cc1c(N/C=C(\\C#N)C(=O)c2ccc(Cl)cc2)c(=O)n(-c2ccccc2)n1C", "TGI": "> 100 µM"}
{"Molecule": "COc1ccccc1N=N/C(=N\\NC(=O)c1ccc(C)cc1)c1ccc(N(CCC#N)CCC#N)cc1C", "TGI": "> 100 µM"}
{"Molecule": "CC1Cc2cc(O)c(O)cc2-c2cc(O)c(O)cc2CC1C (stereo not drawn)", "TGI": "36.1 µM"}
{"Molecule": "Cc1nn2c(C(=O)N/N=C/c3ccc([N+](=O)[O-])cc3)c(C)nc2s1", "TGI": "> 100 µM"}
{"Molecule": "CC1(C)C2CC3C4CC5(Nc6ccccc6C5N41)[C@]3(C)CC2=O (stereo partly drawn)", "TGI": "> 50 µM"}
{"Molecule": "COc1cc(C2C3=C(COC3=O)Nc3c2ccc2c3CCCC2)cc2c1OCO2 (stereo not drawn)", "TGI": "> 100 µM"}
{"Molecule": "C=CC1(NS(=O)(=O)c2ccc(C)cc2)CCC(C(C)(C)C)CC1 (stereo not drawn)", "TGI": "> 100 µM"}
{"Molecule": "C/C(=N\\NC(=S)N1CCCCCCCCCCCC1)c1ccccn1", "TGI": "1.6 µM"}
{"Molecule": "COc1ccc(/C=C2\\Sc3nnc(CNc4ccc(Cl)cc4)n3N=C2c2cc(F)c(Cl)cc2Cl)cc1OC", "TGI": "> 100 µM"}
{"Molecule": "NC(=O)/C=c1/c2ccccc2n2nc3ccccc3c12", "TGI": "40.8 µM"}
{"Molecule": "O=C(O)CN1CCN(CC(=O)N2CCN(C(=O)OCc3ccccc3)CC2)CCN(CC(=O)O)CCN(CC(=O)N2CCN(C(=O)OCc3ccccc3)CC2)CC1", "TGI": "> 100 µM"}
{"Molecule": "CC(C)CC(NC(=O)OC(C)(C)C)C(=O)N1CCCC1C(=O)OCc1ccccc1 (stereo not drawn) (Boc-Leu-Pro-OBn; configuration not given here)", "TGI": "> 100 µM"}
{"Molecule": "Cc1cnc2c(c1)C(=O)C1=C(OC(C)(C)CC1O)C2=O (stereo not drawn)", "TGI": "36.2 µM"}
{"Molecule": "O=C1NC(=O)/C(=C/c2ccc(S(=O)(=O)N/N=C\\C(O)C(O)C(O)C(O)CO)cc2)N1 (stereo not drawn)", "TGI": "> 100 µM"}
{"Molecule": "Cc1cc(C(=O)O)c(C)n1-c1cccc(C(=O)O)c1", "TGI": "> 100 µM"}
{"Molecule": "COc1cccc2c1C(=O)c1c(O)c3c(c(O)c1C2=O)C[C@@](O)(C(=O)CO)CC3OC1CC(O)C(O)C(C)O1 (stereo partly drawn)", "TGI": "5.89 µM"}
{"Molecule": "CCN(CC)C(=O)N1CCN(C=S)CC1", "TGI": "> 100 µM"}
{"Molecule": "CN(C)CC1CCCCCCCCCC(CN(C)C)C1=O (stereo not drawn)", "TGI": "> 61.2 µM"}
{"Molecule": "CC(C)C(C/C=C1/CC(CO)(COC(=O)c2ccccc2)OC1=O)C(C)C (stereo not drawn)", "TGI": "36.9 µM"}
{"Molecule": "CC1C[C@]2(C[C@@H](C)C(=O)O2)O[C@@H]2CC3(C)[C@@H]4CCC5C(C)(C)OC(=O)C[C@H]6OO[C@]4(CC[C@]3(C)C12)CC56O (stereo partly drawn)", "TGI": "> 100 µM"}
{"Molecule": "CCC(C)C1NC(=O)C2CCCN2C(=O)CNC(=O)C(C)NC(=O)C(Cc2ccccc2)NC(=O)C(C(C)C)NC1=O (stereo not drawn) (cyclo(GPIVFA); configuration not given here)", "TGI": "> 100 µM"}
{"Molecule": "CN(C)CCn1c(=O)c2ccc3c4c(nn3CCN(C)C)c3cc([N+](=O)[O-])ccc3n(c1=O)c24", "TGI": "0.745 µM"}
{"Molecule": "Clc1ccc2nc(-c3ccccc3)nc(Cl)c2c1", "TGI": "> 100 µM"}
{"Molecule": "O=[N+]([O-])c1cc(Cl)ccc1OCc1ccccc1", "TGI": "> 100 µM"}
{"Molecule": "COc1ccc(/C=C2\\CN(Cc3cn(CCNc4ccnc5cc(Cl)ccc45)nn3)C/C(=C\\c3ccc(OC)c(OC)c3)C2=O)cc1OC", "TGI": "38.7 µM"}
{"Molecule": "Clc1ccc(-c2ccc(-c3nnc(COc4ccc(OCc5nnc(-c6ccc(-c7ccc(Cl)cc7Cl)o6)o5)c(Cl)c4)o3)o2)c(Cl)c1", "TGI": "> 100 µM"}
{"Molecule": "O=C(CC(=O)N1N=C(N(c2ccccc2)c2ccccc2)CC1c1ccccc1)Nc1ccc(Cl)cc1 (stereo not drawn)", "TGI": "> 100 µM"}
{"Molecule": "COc1ccc(/C(Cl)=C(\\c2ccc(OCCN(C)C)cc2)c2ccc(OC(=O)C(C)(C)C)cc2)cc1", "TGI": "22.4 µM"}
{"Molecule": "CCCCN(CCCC)CCC(O)c1cc2c(Cl)cc(Cl)cc2c2cc(C(F)(F)F)ccc12 (stereo not drawn)", "TGI": "19.1 µM"}
{"Molecule": "O=C1Nc2ccccc2/C1=C\\c1nc(C2CCN(S(=O)(=O)c3ccc(F)cc3)CC2)n2ccccc12", "TGI": "> 100 µM"}
{"Molecule": "C=C1C(=O)OC2CC(=C)C3CC=C(C)C3CC12 (stereo not drawn)", "TGI": "36.7 µM"}
{"Molecule": "CC1(C)OCC([C@H]2CC23SCCCS3)O1 (stereo partly drawn)", "TGI": "> 100 µM"}
{"Molecule": "O=C(O)CCc1c2ccc(=O)c(O)c-2oc2c(O)c(O)ccc12", "TGI": "> 100 µM"}
{"Molecule": "COc1ccc2c(c1)CC1c3c(ccc(OC)c3O)CC2N1C (stereo not drawn)", "TGI": "> 100 µM"}
{"Molecule": "C=C(CC(=O)O)C(=O)O (tested in a mixture with another compound)", "TGI": "> 50 µg/mL"}
